These entries and their values trace back to ChEMBL document CHEMBL5308504.

measuredTarget: Fibroblast growth factor receptor 3 (Homo sapiens)
cond: Compound concentration 20.0 uM, Protein concentration 2.0 uM, Result type QC Liability
Description: Thermal Shift Assay. Domain: start/stop: P449-E759
Each entry falls into one class according to its ΔTm; the ranges are low interval = under 0.6 °C, middle interval = from 0.6 °C up to 2 °C, high interval = 2 °C and over

State the class of the compound shown: COc1cc(F)ccc1-c1cc(Nc2cc(CS(C)(=N)=O)ccn2)ncc1F (centres undefined) high interval

State the class of the compound shown: Cn1cc(-c2ccc(N(C(=O)NCc3ccccc3)[C@H]3CC[C@H](Nc4ccc(C#N)cn4)CC3)cc2)ccc1=O middle interval

State the class of the compound shown: O=C(O)c1cc(-c2ccccc2)ccc1O middle interval

State the class of the compound shown: O=C1Nc2ccc(I)cc2/C1=C/c1cc(Br)c(O)c(Br)c1 low interval

State the class of the compound shown: COc1cc2nc([C@@H]3CCCS(=O)(=O)C3)n(C)c2cc1NC(=O)c1cccc(C(C)(F)F)n1 middle interval

State the class of the compound shown: N#CN1CC[C@@H](C(=O)Nc2nc3c(s2)CN(C(=O)CN=[N+]=[N-])CC3)C1 middle interval
